Answer each item with its documented pKd.
Biological target: T1, BsMiniIII (Bacillus subtilis, UniProt O31418 1-143)
T1 sequence: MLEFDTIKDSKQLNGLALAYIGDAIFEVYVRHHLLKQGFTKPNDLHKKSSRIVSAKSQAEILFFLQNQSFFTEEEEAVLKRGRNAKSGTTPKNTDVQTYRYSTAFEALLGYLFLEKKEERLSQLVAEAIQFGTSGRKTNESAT
Test: filter binding; 1 mM Ca2+ (no Mg2+); Enzyme-specific cleavage buffer (Table S1, mostly not in material) with MgCl2 replaced by 1 mM CaCl2; 1.5 nM 33P-dsRNA, 50 ul, 1 h at room temperature; nitrocellulose filter; one-site fit
Conditions: protein: recombinant; tags: N-terminal His6 (pET28a, NdeI/XhoI); chain copies: 2; label: 33P 5' end label; blunt
Value format note: pKd is -log10 of concentration (mol/L); just state the number.

[in] Give reported pKd value for POS-ACCU (dsRNA) RNA 1: GCUGGGAGGGAAACCUCUCUCUCUGGCC RNA 2: GGCCAGAGAGAGAGGUUUCCCUCCCAGC
[out] 6.85

[in] Please look at this binder and report its pKd: NEG (dsRNA) RNA 1: CCUGUCCCCCGCCGAAGUCGCUGCAAUU RNA 2: AAUUGCAGCGACUUCGGCGGGGGACAGG
[out] 7.15
